- Test system: Staphylococcus aureus
- PROTOCOL_DETAILS: Antimicrobial activity against Staphylococcus aureus ATCC 29737 assessed as zone of inhibition at 4 mg/ml incubated for 24 hrs by agar well diffusion method
- Type: functional
- PARTICULARS: read-out: IZ
OBSERVED_PROPERTY: zone of inhibition at 4000 µg/mL (mm)
Please state the figure in mm; there is no need to write the unit.

Please review the following examples before continuing.
CN[C@@H]1[C@H](O[C@H]2[C@H](O[C@H]3[C@H](O)[C@@H](O)[C@H](N=C(N)N)[C@@H](O)[C@@H]3N=C(N)N)O[C@@H](C)[C@]2(O)C=O)O[C@@H](CO)[C@H](O)[C@H]1O | 30.6
COc1cccc(C2=CC(c3ccc(Br)cc3)N(C(=O)c3ccncc3)N2)c1 (stereo unspecified) | 26.4

Query block: # query: zone of inhibition at 4000 µg/mL | item Cc1ccc(C2=CC(c3ccc(Br)cc3)N(C(=O)c3ccncc3)N2)cc1 (stereo unspecified) | system: Staphylococcus aureus
Result block: 25.4

Query block: # query: zone of inhibition at 4000 µg/mL | item COc1cccc(C2=CC(c3ccc(Cl)cc3)N(C(=O)c3ccncc3)N2)c1 (stereo unspecified) | system: Staphylococcus aureus
Result block: 27.2

Query block: # query: zone of inhibition at 4000 µg/mL | item O=C(c1ccncc1)N1NC(c2ccc(Cl)cc2)=CC1c1ccc([N+](=O)[O-])cc1 (stereo unspecified) | system: Staphylococcus aureus
Result block: 23.4

Query block: # query: zone of inhibition at 4000 µg/mL | item CC1(C)S[C@@H]2[C@H](NC(=O)[C@H](N)c3ccccc3)C(=O)N2[C@H]1C(=O)O | system: Staphylococcus aureus
Result block: 27.3

----------
- Test system: Pseudomonas aeruginosa
- PROTOCOL_DETAILS: Antimicrobial activity against Pseudomonas aeruginosa ATCC 19429 incubated for 24 hrs by broth microdilution method
- Format: functional
OBSERVED_PROPERTY: MIC (µM)
Please state the figure in µM; there is no need to write the unit.

Please review the following examples before continuing.
COc1cccc(C2=CC(c3ccc(Br)cc3)N(C(=O)c3ccncc3)N2)c1 (centres undefined) | 229
O=C(c1ccncc1)N1NC(c2ccc(Cl)cc2)=CC1c1ccc(F)cc1 (centres undefined) | 131
O=C(c1ccncc1)N1NC(c2ccc(Br)cc2)=CC1c1ccccc1 (centres undefined) | 123

Query block: Given the entry Cc1ccc(C2=CC(c3ccc(F)cc3)N(C(=O)c3ccncc3)N2)cc1 (centres undefined) , report its measured MIC.
Result block: 139

----------
- Test system: Staphylococcus aureus
- PROTOCOL_DETAILS: Antimicrobial activity against Staphylococcus aureus ATCC 29737 assessed as zone of inhibition at 4 mg/ml incubated for 24 hrs by agar well diffusion method
- Assay type: functional
- PARTICULARS: read-out: IZ
Outcome label depends on zone of inhibition at 4000 µg/mL relative to 20 mm: at/above gives Criterion met, below gives Criterion not met.

Query block: Record O=C(c1ccncc1)N1NC(c2ccc(F)cc2)=CC1c1ccc(Br)cc1 (stereo not given) ; criterion: zone of inhibition at 4000 µg/mL no lower than 20 mm. Met?
Result block: Criterion not met

Query block: Record Cc1ccc(C2=CC(c3ccc(F)cc3)N(C(=O)c3ccncc3)N2)cc1 (stereo not given) ; criterion: zone of inhibition at 4000 µg/mL no lower than 20 mm. Met?
Result block: Criterion met

Query block: Record O=C(c1ccncc1)N1NC(c2ccc(Cl)cc2Cl)=CC1c1cccc([N+](=O)[O-])c1 (stereo not given) ; criterion: zone of inhibition at 4000 µg/mL no lower than 20 mm. Met?
Result block: Criterion met

Query block: Record O=C(c1ccncc1)N1NC(c2ccccc2)=CC1c1cccc([N+](=O)[O-])c1 (stereo not given) ; criterion: zone of inhibition at 4000 µg/mL no lower than 20 mm. Met?
Result block: Criterion not met

Query block: Record O=C(c1ccncc1)N1NC(c2ccc(Cl)cc2)=CC1c1ccc(F)cc1 (stereo not given) ; criterion: zone of inhibition at 4000 µg/mL no lower than 20 mm. Met?
Result block: Criterion met
